pKi: −log10 of the molar value.
Entries below carry reported pKi on Gonadotropin-releasing hormone receptor (Homo sapiens, UniProt P30968).
Sequence (P30968 whole entry): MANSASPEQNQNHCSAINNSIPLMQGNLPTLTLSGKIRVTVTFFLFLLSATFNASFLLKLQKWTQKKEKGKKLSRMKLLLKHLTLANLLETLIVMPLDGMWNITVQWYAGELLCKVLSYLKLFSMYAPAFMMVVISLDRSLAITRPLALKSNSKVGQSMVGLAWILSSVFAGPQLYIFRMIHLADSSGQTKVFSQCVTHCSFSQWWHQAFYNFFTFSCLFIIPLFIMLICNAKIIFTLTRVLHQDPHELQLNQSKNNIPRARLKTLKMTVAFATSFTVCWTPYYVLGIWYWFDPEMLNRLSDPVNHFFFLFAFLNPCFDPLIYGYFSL
METRIC: pKi

Previously resolved entries follow.
{"STRUCTURE_STRING": "COc1cccc(-c2c(C)n(Cc3c(F)cccc3F)c(=O)n([C@H](C)CN(C)Cc3ccccc3)c2=O)c1", "pKi": 6.82}
{"STRUCTURE_STRING": "COc1cccc(-c2c(C)n(Cc3c(F)cccc3F)c(=O)n([C@@H](C)CN(C)CCc3ccccn3)c2=O)c1", "pKi": 5.74}
{"STRUCTURE_STRING": "COc1cccc(-c2c(C)n(Cc3c(F)cccc3F)c(=O)n([C@@H](C)CNCC(C)C)c2=O)c1", "pKi": 5.92}

(I) COc1cccc(-c2c(C)n(Cc3c(F)cccc3F)c(=O)n([C@H](C)CN(C)CC3CC3)c2=O)c1
(II) COc1cccc(-c2c(C)n(Cc3c(F)cccc3F)c(=O)n([C@@H](C)CNC3CCCC3)c2=O)c1
// query Quick one: lower pKi, I or II ? Indicate which entry you chose by stating its label.
// result II
(II: 6.02, I: 6.23)

Data origin, for the record: ChEMBL document CHEMBL1146627
